The values you see were collected from patent US20100285988A1.

Molecular target: γ-secretase (human; HeLa cell membrane / solubilized HeLa membrane; endogenous in HEK293 cells) (human), P49768
Conditions: modification not given
READOUT_NAME: pIC50
Answers are plain numbers, as −log10 of the molar value.

Could you tell me which pIC50 is on file for `KLVFFAED` ? 4.85
